- target_of_assay: COX-1 (Homo sapiens, UniProt P23219)
- Construct: Assay of COX-1 Activity from U937 Cell Microsomes; endogenous in cells
- Sequence (P23219 24-599): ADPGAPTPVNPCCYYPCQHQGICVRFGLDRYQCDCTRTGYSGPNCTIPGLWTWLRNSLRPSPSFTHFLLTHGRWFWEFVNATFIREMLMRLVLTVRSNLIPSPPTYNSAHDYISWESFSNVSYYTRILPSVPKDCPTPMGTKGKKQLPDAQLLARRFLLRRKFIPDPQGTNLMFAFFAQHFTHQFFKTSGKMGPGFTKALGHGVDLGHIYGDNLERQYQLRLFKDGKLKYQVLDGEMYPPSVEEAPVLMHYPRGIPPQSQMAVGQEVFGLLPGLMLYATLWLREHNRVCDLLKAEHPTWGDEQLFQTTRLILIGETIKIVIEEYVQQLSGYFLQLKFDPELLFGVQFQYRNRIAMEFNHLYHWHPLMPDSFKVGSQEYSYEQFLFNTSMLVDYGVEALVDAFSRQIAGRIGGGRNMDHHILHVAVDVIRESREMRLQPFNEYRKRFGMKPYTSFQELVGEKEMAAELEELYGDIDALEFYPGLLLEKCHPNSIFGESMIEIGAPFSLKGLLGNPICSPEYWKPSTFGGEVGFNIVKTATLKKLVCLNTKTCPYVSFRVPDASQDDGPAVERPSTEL
- experimental_details: Cox-1 U937 (COX-1 activity from U937 cell microsomes)
- study_conditions: U937, PGE2 synthesis in presence of AA
observed_property: pIC50
Quick note: pIC50 means taking -log10 of the concentration in moles per liter.

CS(=O)(=O)c1ccc(-c2cc(C(F)(F)F)cnc2-c2ccccc2)cc1 :: 5.82

Below: the item to evaluate.
Entry "Cc1cnc(-c2ccccc2)c(-c2ccc(S(C)(=O)=O)cc2)c1" ; pIC50 = 5.52

* * *

- target_of_assay: UniProt P35354
- Sequence (P35354 18-604): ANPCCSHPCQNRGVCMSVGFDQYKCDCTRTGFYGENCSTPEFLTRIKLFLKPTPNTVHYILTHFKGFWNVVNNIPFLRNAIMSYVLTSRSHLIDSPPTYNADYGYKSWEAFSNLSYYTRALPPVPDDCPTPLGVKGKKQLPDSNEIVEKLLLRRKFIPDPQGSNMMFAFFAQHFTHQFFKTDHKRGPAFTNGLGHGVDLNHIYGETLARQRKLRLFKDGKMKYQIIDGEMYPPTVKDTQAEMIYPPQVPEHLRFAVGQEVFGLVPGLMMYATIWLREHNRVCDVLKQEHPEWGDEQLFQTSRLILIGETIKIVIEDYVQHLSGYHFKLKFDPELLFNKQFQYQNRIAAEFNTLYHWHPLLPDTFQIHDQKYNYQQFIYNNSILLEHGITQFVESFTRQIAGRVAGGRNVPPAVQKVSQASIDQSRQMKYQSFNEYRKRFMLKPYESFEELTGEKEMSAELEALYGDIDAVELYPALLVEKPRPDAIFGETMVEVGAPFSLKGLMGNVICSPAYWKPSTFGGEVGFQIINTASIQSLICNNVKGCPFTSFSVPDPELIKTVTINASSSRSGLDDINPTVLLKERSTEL
- experimental_details: Human whole blood assay, COX-2 (LPS-induced PGE2 production)
- Type: cell-based
observed_property: IC50 (nM)
Kindly answer with a numeric value in nM, unit omitted.

Entry CS(=O)(=O)c1ccc(-c2cc(Cl)cnc2-c2ccc(C3CC3)nc2)cc1 [Example 73] ; IC50 = 1800
